Measured cytotoxicity at 10 µM values are reported for all entries that follow.
Test: Toxicity liver stage against HepG2, at 10uM
Type: cell-based
Design: test concentration 10 uM, cell line HepG2-A16-CD81EGFP
Settings: human, HepG2-A16-CD81EGFP cells; read-out: INHIBITION
Reply numerically in %, unit not repeated.

See these solved cases before continuing.
Quick check: cytotoxicity at 10 µM of c1ccc(-c2nc3c(c(NCCn4ccnn4)n2)CCNCC3)nc1 ?
-51.1

Same lookup for CC(C)c1nccn1C1CCCN(C(=O)c2ccc3c(c2)OCO3)C1 (centres undefined) , please.
4.28

Same lookup for Cc1cnn(C2CCCN(C(=O)c3ccc(OCC4CC4)nc3)C2)c1 (centres undefined) , please.
-4.04

Same lookup for c1cc2nccc(CC3CCCN(Cc4ncc[nH]4)CC3)c2cn1 (centres undefined) , please.
-2.06

Same lookup for O=C(CN1CCOC(Cn2cncn2)C1)NC(C1CC1)C1CC1 (centres undefined) , please.
-49.5

Others:
Quick check: cytotoxicity at 10 µM of CN(Cc1ccsc1)C(=O)CNC(=O)N1CCc2ccccc2C1 ?
-2.9

Same lookup for c1cnc(-c2nc(CN3CCCC3Cn3cncn3)cs2)nc1 (centres undefined) , please.
-9.77

Same lookup for CCc1ccc(NC(=O)N2C[C@@H]3C[C@H](C(=O)NC4CCC4)[C@H](C2)O3)cc1 , please.
-2.25

Same lookup for c1cc(CN2CCCn3nnc(COCC4CC4)c3C2)ccn1 , please.
-113

Same lookup for c1nc2n(c1CN1CCCC1)CCN(C1CCOCC1)CC2 , please.
-71.1
